Answer each item with its documented residual activity.
- testedTarget: AKT3 (human)
- protocolText: radiometric filter-binding kinase assay, Kinase HotSpot
- conditionNotes: compound 0.5 µM; ATP 10 µM
# value in %; strip the unit string

Any idea what residual activity was measured for `CCc1nc(-c2ccc(OC)cc2)[nH]c1-c1ccncc1` ? 101

GET /values?readout=residual activity&item= `O=C(O)c1ccc2c3c1cccc3c(=O)n1c3ccccc3nc21` 104

What value of measured residual activity is listed for `FC(F)(F)c1ccc(/C=C/c2nc(COc3ccc(CCCCn4ccnn4)cc3)co2)cc1` ? 96.3

Report residual activity for `COc1cc2c(Nc3ccc(Br)cc3F)ncnc2cc1OCC1CCN(C)CC1` please. 100

State the recorded residual activity for this entry: `CCCCc1c(-c2ccc(O)cc2)[nH]c2nccnc12` 95.8

I have this molecule here, `O=c1cc(N2CCOCC2)oc2c(-c3ccccc3)cccc12` , and I need its recorded residual activity. 102

Fill in: residual activity of `N/C(=N\N=C/c1ccc(-c2cccc([N+](=O)[O-])c2)o1)N[N+](=O)[O-]` is ___ 94.3

Requested read-out: residual activity. Entry: `N#CCCc1ccc2c(c1)-c1[nH]c3ccc([N+](=O)[O-])cc3c1CC(=O)N2` 95.5

# get_value(readout='residual activity', item= `COc1cc2c(cc1OC)-c1[nH]nc(Nc3cccc(F)c3)c1C2` ) 96.1

Sample `O=c1[nH]c2ccccc2n1C1CCN(Cc2ccc(-c3nc4cc5[nH]cnc5cc4nc3-c3ccccc3)cc2)CC1` — what was its residual activity? 103
